# Target Under Test: streptavidin (PT2) (Streptomyces avidinii, UniProt P22629)
# Sequence (P22629 37-163 limits assumed): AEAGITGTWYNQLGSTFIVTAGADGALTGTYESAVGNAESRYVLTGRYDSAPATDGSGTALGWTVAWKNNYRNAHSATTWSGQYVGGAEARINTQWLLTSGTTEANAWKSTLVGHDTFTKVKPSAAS
# Experiment Description: Yeast surface display titration
# Assay type: binding
# Condition Info: read-out: KDapp; yeast-displayed peptide vs soluble PT2, text value
pKd: −log10 of the molar value. Positions of bridges follow the written chain, without caps; N, C: chain ends. No end group written: not given here.
Measured Property: pKd

// returns reported pKd for input ACHYHPQFYMRCSG (disulfide 2-12 (inferred)) [MP2.6]
9.52 to 9.70
